Method Notes: Clearance in Sprague-Dawley rat at 5 to 10 mg/kg, po by LC-MS/MS analysis
Assay type: ADME, organism-based
Stated Conditions: in vivo, dose 5-10 mg/kg
Readout Kind: CL/F (mL/min/kg)
Numbers only, in mL/min/kg.

Exam item: Look up CL/F of O=c1cc(-c2c(-n3cnnn3)ccc(Cl)c2F)cc2n1[C@H](c1ccc(-c3ccnc(CO)c3F)[nH]1)CC2 and report it.
Marked response: 19.6

---

Test Target: Coagulation factor XI (Homo sapiens)
Sequence (P03951 19-387 limits assumed): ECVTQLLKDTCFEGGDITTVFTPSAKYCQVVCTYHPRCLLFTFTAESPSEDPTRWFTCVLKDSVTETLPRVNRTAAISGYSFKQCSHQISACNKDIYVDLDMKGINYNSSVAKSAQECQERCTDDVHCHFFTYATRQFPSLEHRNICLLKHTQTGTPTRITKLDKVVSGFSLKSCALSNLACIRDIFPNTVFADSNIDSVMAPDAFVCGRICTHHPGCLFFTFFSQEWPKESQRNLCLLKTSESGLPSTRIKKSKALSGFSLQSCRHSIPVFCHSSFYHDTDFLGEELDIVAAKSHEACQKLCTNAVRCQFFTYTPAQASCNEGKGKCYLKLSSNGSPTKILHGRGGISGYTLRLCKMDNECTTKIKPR
Sequence (P03951 388-625 limits assumed): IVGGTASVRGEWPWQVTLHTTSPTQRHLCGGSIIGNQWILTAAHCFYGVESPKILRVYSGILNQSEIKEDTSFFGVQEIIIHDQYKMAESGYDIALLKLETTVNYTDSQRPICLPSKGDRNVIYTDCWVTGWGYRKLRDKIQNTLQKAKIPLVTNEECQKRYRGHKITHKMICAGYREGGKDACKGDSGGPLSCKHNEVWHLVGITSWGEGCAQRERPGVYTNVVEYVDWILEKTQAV
Method Notes: Inhibition of FXIa (unknown origin)
Readout Kind: IC50 (µM)
Answers are plain numbers, in µM.

Recorded results for 5 molecules are shown here.
query_smiles=[2H]C([2H])([2H])n1ncc2c1-c1ccnc(c1)[C@@H](c1coc(-c3cc(Cl)ccc3-n3cc(Cl)nn3)cc1=O)CCC[C@@H](C)C(=O)N2 numeric_readout=0.0061
query_smiles=C[C@@H]1CCC[C@H](n2cnc(-c3cc(Cl)ccc3-n3cnnn3)cc2=O)c2cc(c3c(n2)OCCO3)-c2c(cnn2C)NC1=O numeric_readout=0.0104
query_smiles=C[C@@H]1CCC[C@H](c2ccc(-c3cc(Cl)ccc3-n3cc(Cl)nn3)oc2=O)c2cc(ccn2)-c2c(cnn2C(F)F)NC1=O numeric_readout=0.0039
query_smiles=O=C(O)c1cc2cc(NC(=O)[C@@H]3CCc4cc(-c5cc(Cl)ccc5-n5cnnn5)cc(=O)n43)ccc2[nH]1 numeric_readout=0.0064
query_smiles=O=C(Nc1ccc(C(=O)Nc2ccc(C(=O)Nc3ccc(OS(=O)(=O)O)c4cc(OS(=O)(=O)O)cc(OS(=O)(=O)O)c34)cc2)cc1)Nc1ccc(C(=O)Nc2ccc(C(=O)Nc3ccc(OS(=O)(=O)O)c4cc(OS(=O)(=O)O)cc(OS(=O)(=O)O)c34)cc2)cc1 numeric_readout=4.6

For every listed record, write down its IC50.
1. O=C(/C=C/c1cc(Cl)ccc1-n1cnnn1)N[C@@H](CC(=O)N1CCN(c2ccccc2)CC1)C(=O)Nc1ccc(C(=O)O)cc1
2. O=C(OC[C@H]1O[C@@H](OC(=O)c2cc(OS(=O)(=O)O)cc(OS(=O)(=O)O)c2)[C@H](OC(=O)c2cc(OS(=O)(=O)O)cc(OS(=O)(=O)O)c2)[C@@H](OC(=O)c2cc(OS(=O)(=O)O)cc(OS(=O)(=O)O)c2)[C@@H]1OC(=O)c1cc(OS(=O)(=O)O)cc(OS(=O)(=O)O)c1)c1cc(OS(=O)(=O)O)cc(OS(=O)(=O)O)c1
3. O=C(O[C@H]1[C@H](OC(=O)c2cc(OS(=O)(=O)[O-])cc(OS(=O)(=O)[O-])c2)[C@H](OC(=O)c2cc(OS(=O)(=O)[O-])cc(OS(=O)(=O)[O-])c2)[C@@H](OC(=O)c2cc(OS(=O)(=O)[O-])cc(OS(=O)(=O)[O-])c2)[C@H](OC(=O)c2cc(OS(=O)(=O)[O-])cc(OS(=O)(=O)[O-])c2)[C@H]1OC(=O)c1cc(OS(=O)(=O)[O-])cc(OS(=O)(=O)[O-])c1)c1cc(OS(=O)(=O)[O-])cc(OS(=O)(=O)[O-])c1.[Na+].[Na+].[Na+].[Na+].[Na+].[Na+].[Na+].[Na+].[Na+].[Na+].[Na+].[Na+]

Marked response:
1. 0.0071
2. 1.4
3. 0.28

Data origin, for the record: ChEMBL document CHEMBL5338745
